Taken from the supplement of paper PMC7877785.

EXPERIMENT: self-splicing fitness, log relative to wild type (ln ratio); higher = more splicing; Tetrahymena group I intron in knt gene, E. coli kanamycin selection, DiMSum; sequences stand for … in CUCUCU…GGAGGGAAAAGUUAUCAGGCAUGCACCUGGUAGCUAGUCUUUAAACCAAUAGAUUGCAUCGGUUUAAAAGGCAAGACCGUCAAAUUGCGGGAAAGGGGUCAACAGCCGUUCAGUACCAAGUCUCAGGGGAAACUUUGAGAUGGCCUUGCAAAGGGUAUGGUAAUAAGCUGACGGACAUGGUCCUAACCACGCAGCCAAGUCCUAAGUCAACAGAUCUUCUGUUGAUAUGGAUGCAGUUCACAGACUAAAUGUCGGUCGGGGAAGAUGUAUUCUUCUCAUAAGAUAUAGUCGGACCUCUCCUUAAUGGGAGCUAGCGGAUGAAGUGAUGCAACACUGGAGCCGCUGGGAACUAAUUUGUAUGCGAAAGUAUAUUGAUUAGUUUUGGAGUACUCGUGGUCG;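 note: selection with 25 µg/mL kanamycin versus none on LB agar overnight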
PROTOCOL_CONDITIONS: 30 °C
MEASURED_ENDPOINT: self-splicing fitness (ln)
One number for each entry.

// batch mode: one self-splicing fitness (ln) value per listed entry
1. AUCCAGCAAUAUUACGUACC
2. GUAGAGCAAUAUUACGCAGU
3. AGUUAGCAAUAUUACGCAUC

Data returned:
1: -2; 2: -1.39; 3: -3.63

// batch mode: one self-splicing fitness (ln) value per listed entry
1. AAGCAGCAAUAUUACGGAAU
2. AGAGAGCAAUAUUACGACUC
3. GACCAGCAAUAUUACGCCAA
4. ACCGAGCAAUAUUACGCGUU
5. UGCCAGCAAUAUUACGUAUA
6. CAUGAGCAAUAUUACGUUCU
7. GUAAAGCAAUAUUACGUUAC
8. GAACAGCAAUAUUACGUUUU

Data returned:
-3.08
-1.4
-2.99
-2.95
-1.92
-3.59
-1.15
-3.06

// batch mode: one self-splicing fitness (ln) value per listed entry
1. CACCAGCAAUAUUACGUUAC
2. CGUUAGCAAUAUUACGUAAA
3. UUACAGCAAUAUUACGUUAA
4. AGCAAGCAAUAUUACGCUAA
5. UAAUAGCAAUAUUACGCAUC
6. GAAAAGCAAUAUUACGCGAA

Data returned:
1. -4.48
2. -2.88
3. -1.12
4. -2.93
5. -2.08
6. -2.75

// batch mode: one self-splicing fitness (ln) value per listed entry
1. UGUCAGCAAUAUUACGAUCU
2. CAUAAGCAAUAUUACGGUCC
3. CGUAAGCAAUAUUACGGGGG
4. GUUAAGCAAUAUUACGUUAA
5. GGGCAGCAAUAUUACGCAAA
6. UCGAAGCAAUAUUACGACUU
7. AAACAGCAAUAUUACGGCUG
8. UACCAGCAAUAUUACGUGGU

Data returned:
1. -0.397
2. -3.2
3. -2.61
4. -2.24
5. -1.39
6. -1.14
7. -3.47
8. -3.86

// batch mode: one self-splicing fitness (ln) value per listed entry
1. UACGAGCAAUAUUACGGCCA
2. AGUCAGCAAUAUUACGACUG
3. UGCCAGCAAUAUUACGGGAA
4. AACAAGCAAUAUUACGGCCC

Data returned:
[-1.61, -0.879, -1.37, -0.249]

// batch mode: one self-splicing fitness (ln) value per listed entry
1. GUCAAGCAAUAUUACGCGCU
2. GAACAGCAAUAUUACGCUGA
3. AGGAAGCAAUAUUACGCUGC
4. GUACAGCAAUAUUACGUAGG
5. GAACAGCAAUAUUACGGAAC
6. AUCAAGCAAUAUUACGUAGC
7. GCUUAGCAAUAUUACGGCAG

Data returned:
-1.88
-3.29
-3.38
-2.79
-1.44
-4.82
-4.61

// batch mode: one self-splicing fitness (ln) value per listed entry
1. CCCCAGCAAUAUUACGCGUC
2. AUGGAGCAAUAUUACGAAAG
3. CUUUAGCAAUAUUACGCGAU

Data returned:
[-3.21, -2.94, -3.05]

// batch mode: one self-splicing fitness (ln) value per listed entry
1. UCACAGCAAUAUUACGCCUU
2. UAGCAGCAAUAUUACGCCGU
3. UCGCAGCAAUAUUACGGAAU
4. UACAAGCAAUAUUACGUCUC
5. CAUUAGCAAUAUUACGAACC
6. UGAUAGCAAUAUUACGUCAG
7. GUAGAGCAAUAUUACGCACA
8. GACCAGCAAUAUUACGCGAU

Data returned:
[-3.82, -2.13, -2.75, -1.68, -3.51, -1.84, -0.23, -2.28]
